Test system: TE-8 (Esophageal Squamous Cell Carcinoma);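 also: after 72 h of two-drug dosing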
ASSAY_PROTOCOL: Bliss excess, mean over the matrix (fraction); higher = more synergy
ENDPOINT: Bliss excess

INSERT INTO assay_data (compound, result) VALUES
  ('C[C@@H](c1ccc2nccn2c1)n1nnc2ncc(-c3cnn(C)c3)nc21 [Savolitinib] + Cc1c2c(nn1C)CSCc1cc(n(C)n1)CSc1cc(c3ccccc3c1)OCCCc1c(C(=O)O)n(C)c3c-2c(Cl)ccc13 [AZD5991] (first compound max 1 µM, 7x7, partner max 1 µM)', -0.0142),
  ('NC1(C(=O)N[C@@H](CCO)c2ccc(Cl)cc2)CCN(c2ncnc3[nH]ccc23)CC1 [Capivasertib] + CCN(CCO)CCCOc1ccc2c(Nc3cc(CC(=O)Nc4cccc(F)c4)[nH]n3)ncnc2c1 [AZD2811] (first compound max 10 µM, 7x7, partner max 1 µM)', -0.0406),
  ('Cc1cc2ncnn2cc1Nc1ncc2c(n1)n(C1CCOCC1)c(=O)n2C [AZD7648] + COc1cc([C@@H]2c3cc4c(cc3[C@@H](O[C@@H]3O[C@@H]5CO[C@@H](C)O[C@H]5[C@H](O)[C@H]3O)[C@H]3COC(=O)[C@H]23)OCO4)cc(OC)c1O [Etoposide] (first compound max 10 µM, 7x7, partner max 10 µM)', 0.0501),
  ('CC(=O)c1c(C)c2cnc(Nc3ccc(N4CCNCC4)cn3)nc2n(C2CCCC2)c1=O [Palbociclib] + Cc1c2c(nn1C)CSCc1cc(n(C)n1)CSc1cc(c3ccccc3c1)OCCCc1c(C(=O)O)n(C)c3c-2c(Cl)ccc13 [AZD5991] (first compound max 10 µM, 7x7, partner max 1 µM)', -0.108);

This collection of values is drawn from the supplement of paper PMC11061612.
